Test system: HS 578T breast
Assay: NCI tumour cell line growth inhibition, 48 h
Items are presented alongside their recorded TGI.

// known answers, use as guide
compound	assay-system	reported
Nc1cc2[nH]c(=O)c(=O)[nH]c2cc1N	HS 578T breast	> 100 µM
COc1ccc(/C=C/c2ccnc3ccccc23)c(OC)c1	HS 578T breast	> 10 µM
COc1cc(/C=C/c2cc(/C=C/c3ccc(O)c(OC)c3)n(C(=O)Nc3ccc(F)c(Cl)c3)n2)ccc1O	HS 578T breast	2.74 µM
COC(CNC(=O)C(C)NC(=O)CCc1ccccc1)OC (stereo not given)	HS 578T breast	> 100 µM

For record O=Cc1ccc(OCc2cccc(COc3ccc(/C=N\Nc4ccc([N+](=O)[O-])cc4[N+](=O)[O-])cc3)n2)cc1 the listed TGI is > 100 µM
